// molecules with reported Ki on 5-hydroxytryptamine receptor 2A (Homo sapiens, UniProt P28223), multi-publication

molecule	study.target	Ki
COc1ccc(N2CCC(c3ccc(F)cc3)C2=O)cc1OCCN1CCCCC1 (stereo not given)	5-hydroxytryptamine receptor 2A (Homo sapiens, UniProt P28223)	> 2.51 µM

Give the observed Ki of CC(C)(C)NC(=O)N1OCC2COc3ccccc3C21 (stereo not given) for 5-hydroxytryptamine receptor 2A (Homo sapiens, UniProt P28223).
> 10 µM

Give the observed Ki of COc1cccc2c1CCC[C@H]2CN(C)CCc1ccc2ccoc2c1 for 5-hydroxytryptamine receptor 2A (Homo sapiens, UniProt P28223).
> 1 µM

Give the observed Ki of Cc1ccc(N2CCC(c3ccc(Cl)c(Cl)c3)C2=O)cc1OCCN1CCCCC1 (stereo not given) for 5-hydroxytryptamine receptor 2A (Homo sapiens, UniProt P28223).
> 1.58 µM

Give the observed Ki of CC(=O)c1c(C)cc2oc(=O)cc(C)c2c1OCCCN1CCN(c2ccncc2)CC1 for 5-hydroxytryptamine receptor 2A (Homo sapiens, UniProt P28223).
> 10 µM

Give the observed Ki of Cc1cc2c(cc1Cl)N(C(=O)Nc1ccc(OCc3nccs3)nc1)CC2 for 5-hydroxytryptamine receptor 2A (Homo sapiens, UniProt P28223).
> 0.794 µM

Give the observed Ki of CCCCN1CCC(COC(=O)c2cc(Cl)c(N)c3c2OCCO3)CC1 for 5-hydroxytryptamine receptor 2A (Homo sapiens, UniProt P28223).
> 1 µM

Give the observed Ki of CC(=O)c1c(C)cc2oc(=O)cc(C)c2c1OCCCN1CCOCC1 for 5-hydroxytryptamine receptor 2A (Homo sapiens, UniProt P28223).
> 10 µM

Give the observed Ki of COc1ccc(N2CCC(c3ccc(OC)c(OCCN4CCCCC4)c3)C2=O)cc1 (stereo not given) for 5-hydroxytryptamine receptor 2A (Homo sapiens, UniProt P28223).
> 10 µM

Give the observed Ki of COc1ccc(N2CCN(c3ccc(Cl)c(Cl)c3)C2=O)cc1OCCN1CCOCC1 for 5-hydroxytryptamine receptor 2A (Homo sapiens, UniProt P28223).
> 5.01 µM

----------
// compounds with reported Ki on 5-hydroxytryptamine receptor 2A (Homo sapiens), multi-publication

Identify Ki associated with the compound O=C1C(c2ccc(Cl)c(Cl)c2)=CCN1c1ccc(N2CCCC2)c(OCCN2CCCCC2)c1
> 1260 nM

Identify Ki associated with the compound Cc1cc2c(cc1Cl)N(C(=O)Nc1cnc(Oc3cccnc3C)nc1)CC2
> 631 nM

Identify Ki associated with the compound Cc1ccc2c(OCCN3CCC(Cc4cccc(N5CCCS5(=O)=O)c4)CC3)cccc2n1
> 6310 nM

Identify Ki associated with the compound CNC[C@@H]1CC2c3ccccc3Cc3ccccc3C2O1 (single isomer, unassigned)
74.1 nM

----------
// compounds with reported pKi on 5-hydroxytryptamine receptor 2A (Homo sapiens, UniProt P28223), multi-publication
pKi: −log10 of the molar value.
measured.metric: pKi

These solved cases illustrate the format of a correct answer.
compound	measured.number
CC(C)Oc1cc2c(cc1C(F)(F)F)N(C(=O)Nc1cccnc1)CC2	5.80
Cc1c(OCCCN2CCN(c3cccc4cccc(F)c34)CC2)ccc2c1C(=O)NC2	7.79

[P] O=C1Nc2ccccc2C1CCCCN1CCN(c2ccc(Cl)cc2)CC1 (centres undefined)
[Q] COc1ccc(NC(=O)N2CCN(CCc3ccc(F)cc3)CC2)cc1-c1c(Cl)cnn1C
[R] O=C1CC(CN2CCN(C(=O)c3ccc(F)cc3)CC2)Cc2occc21 (centres undefined)
// sort entries: pKi, high to low Order the labels as requested and list them.
P, Q, R
(P: 7.76, Q: 6.81, R: 5.88)
